# test-target: Luciferin 4-monooxygenase (Photinus pyralis) (UniProt P08659)
# Sequence (P08659 whole entry, looked up, canonical isoform): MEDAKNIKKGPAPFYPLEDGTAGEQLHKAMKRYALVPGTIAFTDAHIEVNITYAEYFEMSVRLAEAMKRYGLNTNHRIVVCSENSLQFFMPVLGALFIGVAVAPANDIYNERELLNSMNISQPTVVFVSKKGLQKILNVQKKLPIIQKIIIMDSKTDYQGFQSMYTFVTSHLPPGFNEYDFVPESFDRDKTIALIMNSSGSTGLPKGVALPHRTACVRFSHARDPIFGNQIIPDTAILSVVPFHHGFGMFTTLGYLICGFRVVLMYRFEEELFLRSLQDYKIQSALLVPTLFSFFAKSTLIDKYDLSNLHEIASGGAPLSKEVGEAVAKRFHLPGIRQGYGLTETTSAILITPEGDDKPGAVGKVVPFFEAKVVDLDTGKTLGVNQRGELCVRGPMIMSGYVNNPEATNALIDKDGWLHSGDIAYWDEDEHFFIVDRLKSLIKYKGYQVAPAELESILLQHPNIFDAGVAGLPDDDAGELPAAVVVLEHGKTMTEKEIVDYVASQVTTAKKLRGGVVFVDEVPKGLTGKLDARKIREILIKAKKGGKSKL
# test-protocol: Counterscreen Assay for Enhancers of SMN2 Splice Variant Expression: Interaction with Luciferase Reporter for Further Probe SAR
# condition-parameters: purified firefly luciferase, luminescence, 5 min; series mostly up to 57.5 µM
Results filed as inconclusive are left out. Activity calls are given as the source filed them. The call rests on the fitted dose curve; in most records, active means well fitted inhibition curve with a large enough effect; inconclusive means small, poorly fitted or top-dose-only effect; inactive means flat fitted curve, though single readings scatter.
Permitted responses: active, inactive

NC(=O)C1CCN(c2ncc(-c3ccc4c(c3)OCO4)s2)CC1
active
CCOC(=O)C1CCN(c2ncc(-c3ccc4c(c3)OCCCO4)s2)CC1
active

Data request: Name the outcome recorded for O=C(C1CCN(c2nc(-c3ccc(Br)cc3)cs2)CC1)N1CCNCC1 in the assay.
Data returned: inactive

====

# test-target: Luciferin 4-monooxygenase (Photinus pyralis)
# test-protocol: Counterscreen Assay for Enhancers of SMN2 Splice Variant Expression: Interaction with Luciferase Reporter for Further Probe SAR
# condition-parameters: purified firefly luciferase, luminescence, 5 min; series mostly up to 57.5 µM
Inconclusive results are not listed. Calls of active or inactive are those of the source. The call rests on the fitted dose curve; in most records, active means well fitted inhibition curve with a large enough effect; inconclusive means small, poorly fitted or top-dose-only effect; inactive means flat fitted curve, though single readings scatter.
Respond using exactly one of the listed classes: active, inactive

NC(=O)C1CCN(c2nccc(-c3ccc(Br)cc3)n2)CC1
active
NC(=O)C1CCN(c2ncc(Br)cn2)CC1
inactive
NC(=O)C1CCN(c2ncc(-c3ccc4c(c3)OCCCO4)s2)CC1
active
CS(=O)(=O)c1ccc(-c2csc(N3CCC(C(N)=O)CC3)n2)cc1
inactive
Cc1ccc(-c2cnc(N3CCC(C(N)=O)CC3)s2)cc1
active

Data request: Hey, what did the test say about COc1cccc(-c2csc(N3CCC(C(N)=O)CC3)n2)c1 ?
Data returned: active

Data request: Likewise for Cc1ccc(-c2nnc(N3CCC(C(N)=O)CC3)s2)cc1 ?
Data returned: active

====

# test-target: Luciferin 4-monooxygenase (Photinus pyralis) (UniProt P08659)
# test-protocol: Counterscreen Assay for Enhancers of SMN2 Splice Variant Expression: Interaction with Luciferase Reporter for Further Probe SAR
# condition-parameters: purified firefly luciferase, luminescence, 5 min; series mostly up to 57.5 µM
Results filed as inconclusive are left out. The source made the active and inactive calls. Calls follow the shape of the dose curve; as a rule, active = well fitted inhibition curve with a large enough effect; inconclusive = small, poorly fitted or top-dose-only effect; inactive = flat fitted curve, though single readings scatter.
In this exercise, the only acceptable responses are active, inactive

Would you please look over these solved cases?
NC(=O)C1CCN(c2nccc(Cl)n2)CC1
inactive
Brc1ccc(-c2csc(N3CCC(c4nn[nH]n4)CC3)n2)cc1
active
c1c[nH]c(C2CCN(c3ncc(-c4ccc5c(c4)OCCCO5)s3)CC2)n1
active
CS(=O)(=O)N1CCN(c2nc(-c3ccc(Br)cc3)cs2)CC1
inactive
NC(=O)C1CCN(c2nc(-c3ccccc3Cl)cs2)CC1
inactive
CC(=O)N1CCN(c2nc(-c3ccc(Br)cc3)cs2)CC1
active
NC(=O)C1CCN(c2nc(-c3cccc4sc5ccccc5c34)cs2)CC1
active
CN(C)c1cccc(-c2nccc(N3CCC(C(N)=O)CC3)n2)c1
inactive
COc1ccc(-c2csc(N3CCC(C(N)=O)CC3)n2)cc1OC
inactive
CC(=O)NC1CCN(c2nc(-c3ccc(Br)cc3)cs2)CC1
inactive

Kindly review the next compound as well.
Data request: Look up the recorded call for NC(=O)C1CCN(c2ncc(-c3ccc4c(c3)OC(F)(F)O4)s2)CC1 in this test.
Data returned: active

====

# test-target: Luciferin 4-monooxygenase (Photinus pyralis)
# test-protocol: Counterscreen Assay for Enhancers of SMN2 Splice Variant Expression: Interaction with Luciferase Reporter for Further Probe SAR
# condition-parameters: purified firefly luciferase, luminescence, 5 min; series mostly up to 57.5 µM
Records with an inconclusive call do not appear. Activity calls are given as the source filed them. The call rests on the fitted dose curve; in most records, active means well fitted inhibition curve with a large enough effect; inconclusive means small, poorly fitted or top-dose-only effect; inactive means flat fitted curve, though single readings scatter.
Entry note: the call must match one of 1 (yes) = active, 0 (no) = inactive

Please review the entries below; each comes with its answer.
CN(C)c1cccc(-c2cnc(N3CCC(C(N)=O)CC3)nc2)c1
1 (yes)
COc1ccccc1-c1csc(N2CCC(C(N)=O)CC2)n1
0 (no)
CN(C)c1cccc(-c2cnc(N3CCC(c4ncc[nH]4)CC3)s2)c1
1 (yes)
CN(C)C(=O)C1CCN(c2nc(-c3ccc(Br)cc3)cs2)CC1
1 (yes)
CC(C)Oc1cccc(-c2cnc(N3CCC(C(N)=O)CC3)s2)c1
1 (yes)

Okay, next one:
Data request: What classification did CC(=O)Nc1ccc(-c2csc(N3CCC(C(N)=O)CC3)n2)cc1 end up with in this test?
Data returned: 0 (no)

====

# test-target: Luciferin 4-monooxygenase (Photinus pyralis)
# test-protocol: Counterscreen Assay for Enhancers of SMN2 Splice Variant Expression: Interaction with Luciferase Reporter for Further Probe SAR
# condition-parameters: purified firefly luciferase, luminescence, 5 min; series mostly up to 57.5 µM
Results filed as inconclusive are left out. Activity calls are given as the source filed them. The call rests on the fitted dose curve; in most records, active means well fitted inhibition curve with a large enough effect; inconclusive means small, poorly fitted or top-dose-only effect; inactive means flat fitted curve, though single readings scatter.
quantity-measured: Potency

Answered examples (5):
NC(=O)C1CCN(c2ncc(-c3ccc(Br)cc3)s2)CC1
4.01 µM (active)
CC(=O)C1CCN(c2ncc(-c3cccc(N(C)C)c3)s2)CC1
5.05 µM (active)
NC(=O)C1CCN(c2nc(-c3ccc4c(c3)OCO4)cs2)CC1
28.4 µM (active)
O=C(O)C1CCN(c2ncc(-c3ccc4c(c3)OCCCO4)s2)CC1
0.005 µM (active)
NC(=O)C1CCN(c2ncc(-c3ccc4c(c3)OCCO4)s2)CC1
5.05 µM (active)

Data request: Give the measured Potency of CC(C)Oc1cccc(-c2ccnc(N3CCC(C(N)=O)CC3)n2)c1 .
Data returned: 10.1 µM (active)

Data request: Subsequent entry: CN(C)c1cccc(-c2cnc(N3CCC(C(N)=O)CC3)s2)c1
Data returned: 0.635 µM (active)

Data request: Can you check NC(=O)C1CCN(c2nc(-c3ccc(C(F)(F)F)cc3)cs2)CC1 next?
Data returned: 20.1 µM (active)

Data request: Let us now turn to CN(C)c1cccc(-c2ncnc(N3CCC(C(N)=O)CC3)n2)c1
Data returned: inactive

Data request: What about NC(=O)C1CCN(c2nnc(-c3ccc4c(c3)OCCCO4)s2)CC1 ?
Data returned: 3.57 µM (active)

Data request: # iterate: NC(=O)C1CCN(c2ncc(Br)s2)CC1
Data returned: inactive

Data request: Now the same for O=C(c1ccccc1)N1CCN(c2nc(-c3ccc(Br)cc3)cs2)CC1
Data returned: inactive

Data request: How about Cc1cnc(N2CCC(C(N)=O)CC2)nc1-c1cccc(N(C)C)c1 ?
Data returned: inactive

Data request: CC(C)(C)OC(=O)NC1CCN(c2nc(-c3ccc(Br)cc3)cs2)CC1 , same question.
Data returned: inactive

Data request: Check N#Cc1ccc(-c2csc(N3CCC(C(N)=O)CC3)n2)cc1 too.
Data returned: inactive

Data request: Same question, COc1cc(-c2csc(N3CCC(C(N)=O)CC3)n2)cc(OC)c1OC this time
Data returned: inactive

meta.source: PubChem BioAssay AID488838
